These entries and their values trace back to patent US20210032312A1.

# testTarget: T1, cynomolgus monkey CD8 alpha on primary cynomolgus CD8+ T cells (cynomolgus monkey, UniProt P01732 23-235 (human entry))
# T1 construct: also called Cyno CD8alpha; cyno CD8A
# T1 sequence (P01732 other isoform, or with tags, fused parts or gaps limits assumed): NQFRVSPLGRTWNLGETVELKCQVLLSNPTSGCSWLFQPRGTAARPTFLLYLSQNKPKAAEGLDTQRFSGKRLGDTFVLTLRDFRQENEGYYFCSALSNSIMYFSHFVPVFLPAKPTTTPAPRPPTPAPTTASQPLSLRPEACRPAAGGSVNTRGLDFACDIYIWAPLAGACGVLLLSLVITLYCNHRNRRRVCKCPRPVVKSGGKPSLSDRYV
# experimentDescription: flow cytometry, cyno CD8+ T cells
parameter: Cyno T-cell Binding 2 uM (MFI)
Supply the numeric figure in MFI, leaving out any unit text.

Which Cyno T-cell Binding 2 uM (MFI) value belongs to P283FR9P1366_D8 (designed binder, FN3 domain) LPAPKNLVVSRVTEDSARLSWTAPDAAFDSFEIAYPEIPIAGEAIVLTVPGSERSYDLTGLKPGTEYFVIIYGVKGGDWSDPLSAIFTT ?
28200

Then what about the binder P283DR9P1364_D11 (designed binder, FN3 domain) LPAPKNLVVSRVTEDSARLSWTAPDAAFDSFDIAYPEWPPKGEAIVLTVPGSERSYDLTGLKPGTEYFVVIYGVKGGIHSAPLSAIFTT ?
70400

Then what about the binder P283HR7P1368_A10 (designed binder, FN3 domain) LPAPKNLVVSRVTEDSARLSWTAPDAAFDSFWIFYLEPFPRGEAIPLEVPGSERSYDLTGLKPGTEYSVDIRGVKGGDHSDPLWAYFTT ?
42300

Then what about the binder P283DR9P1364_C10 (designed binder, FN3 domain) LPAPKNLVVSRVTEDSARLSWTAPDAAFDSFQIAYPEWPKDGEAIVLTVPGSERSYDLTGLKPGTEYAVFIWGVKGGVYSNPLSAIFTT ?
34200

Then what about the binder P283BR9P1363_G5 (designed binder, FN3 domain) LPAPKNLVVSRVTEDSARLSWYRATTPAPHFDSFLIQYQESEKVGEAIVLTVPGSERSYDLTGLKPGTEYTVSIYGVDVKWEGNRPVASNPLSAIFTT ?
24900

Then what about the binder P283BR9P1363_F6 (designed binder, FN3 domain) LPAPKNLVVSRVTEDSARLSWPEEAVTATSFDSFLIQYQESEKVGEAIVLTVPGSERSYDLTGLKPGTEYTVSIYGVDVKWEGNRPVASNPLSAIFTT ?
31600

Then what about the binder P283FR9P1366_H5 (designed binder, FN3 domain) LPAPKNLVVSRVTEDSARLSWTAPDAAFDSFIYIENKVNGEAIVLTVPGSERSYDLTGLKPGTEYHVTIGGVKGGTESNTLSAIFTT ?
5090
